- System: Caenorhabditis elegans dauer (daf-2(e1370))
- ASSAY TEXT: proportion of mobile C. elegans dauer larvae relative to DMSO control (fraction of DMSO control); higher = more viable, less nematicidal, active = 0.63 or less; extreme values may be limits of the assay
- EXPERIMENTAL SETUP: 60 µM; 5 days; temperature: 20 °C
// reported proportion of mobile C. elegans dauer larvae for each item listed
PARAMETER MEASURED: proportion of mobile C. elegans dauer larvae

Cc1ccc(-c2noc(-c3ccc(Br)o3)n2)s1 :: 1 (inactive)
C=CCSc1nnc(-c2ccc(Br)cc2)o1 :: 1 (inactive)
Cc1ccc(-c2noc(COc3ccc(Cl)cc3C)n2)cc1 :: 1 (inactive)
O=C(CSc1nnc(-c2cccc(Cl)c2)o1)NC1CCCCC1 :: 1 (inactive)
O=C(CSc1nnc(-c2ccco2)o1)Nc1cccc(C(F)(F)F)c1 :: 1 (inactive)
O=C(CSc1nnc(-c2cccc(Br)c2)o1)N1CCCCC1 :: 1 (inactive)
Cc1ccccc1-c1nc(-c2ccc(Cl)cc2)no1 :: 1 (inactive)
CCCCCSc1nnc(-c2ccc(Cl)cc2Cl)o1 :: 1 (inactive)
CCC(=O)Nc1ccccc1-c1nc(-c2cccnc2)no1 :: 1 (inactive)
Cc1ccc(SCc2nc(-c3ccc(C)cc3)no2)cc1 :: 1 (inactive)
COc1cccc(-c2noc(COc3ccc(C(C)C)cc3)n2)c1 :: 1 (inactive)
Cn1c(SCc2nc(-c3ccc(Br)cc3)no2)nnc1-c1ccco1 :: 1 (inactive)
COc1ccc(-c2noc(C34CC5CC(CC(C5)C3)C4)n2)cc1 :: 1 (inactive)
COc1nc(-c2ccccc2)ccc1-c1noc(-c2ccccc2Cl)n1 :: 1 (inactive)
COc1ccc(Cl)cc1-c1noc(COc2ccc(Cl)cc2)n1 :: 1 (inactive)
Cc1ccc(-c2nc(-c3cccnc3)no2)c(C)c1 :: 0.0769 (active)
O=C(CSc1nnc(-c2ccccc2)o1)Nc1cc(C(F)(F)F)ccc1Cl :: 1 (inactive)
COc1ccc(-c2noc(COc3ccc(Cl)cc3)n2)cc1 :: 1 (inactive)
Cc1ccc(-c2noc(-c3cc(C)cc(C)c3)n2)cc1 :: 1 (inactive)
Clc1ccc(CSc2nnc(-c3ccc(Cl)cc3)o2)cc1 :: 1 (inactive)
Brc1ccc(-c2noc(-c3cccs3)n2)o1 :: 0.5 (active)
CN(C(=O)CSc1nnc(-c2ccccc2)o1)c1ccccc1 :: 1 (inactive)
CCOc1nc(C)ccc1-c1noc(-c2cccc(C)c2)n1 :: 1 (inactive)
COc1ccccc1-c1nnc(SCc2ccc(F)cc2)o1 :: 1 (inactive)
COC(=O)CSc1nnc(-c2ccc(C(C)(C)C)cc2)o1 :: 1 (inactive)
Cc1cccc(-c2noc(COc3ccc(C)cc3C)n2)c1 :: 1 (inactive)
Cc1ccc(CSc2nnc(-c3ccncc3)o2)cc1 :: 1 (inactive)
Cc1ccccc1-c1noc(-c2ccc(F)cc2)n1 :: 1 (inactive)
Cc1ccccc1CSc1nnc(-c2ccco2)o1 :: 0.5 (active)
Cc1ccc(-c2nnc(SCC(=O)Nc3c(C)cc(C)cc3C)o2)cc1 :: 1 (inactive)
Cc1ccc(NC(=O)CSc2nnc(-c3ccco3)o2)cc1Cl :: 1 (inactive)
Cc1ccc(-c2nnc(SCC(=O)Nc3ccccc3)o2)cc1 :: 1 (inactive)
Cc1ccc(-c2noc(COc3cccc(C)c3)n2)cc1 :: 1 (inactive)
Clc1ccccc1-c1noc(-c2ccncc2)n1 :: 1 (inactive)
Fc1ccc(-c2noc(-c3ccc(Br)cc3)n2)cc1 :: 1 (inactive)
O=C(CSc1nnc(-c2cccc(Br)c2)o1)Nc1ccccn1 :: 1 (inactive)
CC(Sc1nnc(-c2cccnc2)o1)C(=O)c1ccccc1 (stereo not given) :: 1 (inactive)
CCOc1cc(C#N)ccc1OCc1nc(-c2cccs2)no1 :: 1 (inactive)
COc1ccc(-c2nnc(SCc3ccc(C#N)cc3)o2)cc1 :: 1 (inactive)
COc1nc(C)ccc1-c1noc(-c2ccccc2Cl)n1 :: 1 (inactive)
CCOC(=O)c1ccc(NC(=O)c2ccccc2-c2nc(-c3cccc(C)c3)no2)cc1 :: 1 (inactive)
O=C(CSc1nnc(-c2ccccc2Cl)o1)c1ccc2c(c1)CCCC2 :: 1 (inactive)
COc1ccc(-c2noc(COc3ccccc3Cl)n2)cc1 :: 1 (inactive)
Cc1cc(OCc2nc(-c3ccccc3)no2)cc(C)c1Cl :: 1 (inactive)
Cn1c(SCc2nnc(-c3ccccc3)o2)nnc1-c1ccco1 :: 1 (inactive)
O=C(Nc1ccccc1-c1nc(-c2cccnc2)no1)c1cccc(Cl)c1 :: 1 (inactive)
O=C(CSc1nnc(-c2ccc(Cl)cc2Cl)o1)Nc1ccccn1 :: 1 (inactive)
COc1ccc(-c2noc(COc3ccc(C)cc3Br)n2)cc1 :: 1 (inactive)
CC1CCN(C(=O)CSc2nnc(-c3cc4ccccc4o3)o2)CC1 :: 1 (inactive)
COc1cccc(-c2noc(-c3cccc(F)c3)n2)c1 :: 1 (inactive)

* * *

- System: Caenorhabditis elegans dauer (daf-2(e1370))
- ASSAY TEXT: proportion of mobile C. elegans dauer larvae relative to DMSO control (fraction of DMSO control); higher = more viable, less nematicidal, active = 0.63 or less; extreme values may be limits of the assay
- EXPERIMENTAL SETUP: 60 µM; 5 days; temperature: 20 °C
Classes used: Yes = active, No = inactive

CCOc1ccccc1-c1nnc(SCC(=O)NC(C)CC)o1 (configuration not stated) :: No
Cc1ccc(-c2nnc(SCc3ccccc3)o2)cc1 :: Yes
Brc1ccc(-c2noc(-c3ccco3)n2)cc1 :: Yes
C=CCOc1ccc(-c2nc(-c3cccnc3)no2)cc1 :: Yes
Fc1ccc(-c2nc(-c3cccc(C(F)(F)F)c3)no2)cc1 :: No
CCOc1ccccc1-c1nc(-c2cccc(C)c2)no1 :: No
Cc1ccccc1OCc1nc(-c2ccc(Br)cc2)no1 :: No

* * *

- Test system: Ditylenchus dipsaci
- ASSAY TEXT: proportion of mobile D. dipsaci (mixed stage) relative to DMSO control (fraction of DMSO control); higher = more viable, less nematicidal, active = 0.86 or less; extreme values may be limits of the assay
- EXPERIMENTAL SETUP: 60 µM; 5 days; temperature: 20 °C
Classes used: class 1 = active, class 0 = inactive

CCN(CC)C(=O)CSc1nnc(-c2ccc(Br)cc2)o1 :: class 0
Clc1ccc(OCc2nc(-c3ccncc3)no2)cc1 :: class 0
COc1ccc(-c2nnc(SCC(=O)N(C)c3ccccc3)o2)cc1 :: class 0
COc1ccc(-c2nnc(SCc3c(Cl)cccc3Cl)o2)cc1 :: class 0
Cc1ccc(-c2nnc(SCC(=O)Nc3cc(C)ccc3C)o2)cc1 :: class 0
c1ccc(-c2nnc(SCc3cccnc3)o2)cc1 :: class 1
Fc1ccccc1-c1nc(-c2ccccc2)no1 :: class 0
O=C(CSc1nnc(-c2ccc(Br)cc2)o1)N1CCCCCC1 :: class 0
O=C(CSc1nnc(-c2cccc(Cl)c2)o1)N1CCCCC1 :: class 0
C#CCOc1ccc(-c2nc(-c3ccccc3)no2)cc1 :: class 0
COc1ccc(-c2noc(-c3ccccc3C(=O)Nc3cccc(C)c3C)n2)cc1 :: class 0
N#Cc1ccc(OCc2nc(-c3ccc(Br)o3)no2)cc1 :: class 0
Cc1ccccc1OCc1nc(-c2cccc(C(F)(F)F)c2)no1 :: class 0
COc1ccc(-c2nnc(SCC(=O)OCc3ccccc3)o2)cc1 :: class 0
COc1ccc(Cl)cc1-c1nc(-c2ccccc2C)no1 :: class 0
COc1ccc(Cl)cc1-c1noc(COc2ccccc2C)n1 :: class 0
c1ccc(COc2cccc(-c3nc(-c4ccccn4)no3)c2)cc1 :: class 0
Clc1ccc(-c2nnc(SCc3ccccc3)o2)c(Cl)c1 :: class 0
Cc1cc(Br)ccc1OCc1nc(-c2ccncc2)no1 :: class 0
c1ccc(-c2noc(COc3cccc4ccccc34)n2)nc1 :: class 0
O=C(CSc1nnc(-c2ccccc2)o1)Nc1cccc(Cl)c1 :: class 0
Cc1csc(NC(=O)CSc2nnc(-c3ccccc3Cl)o2)n1 :: class 0
COc1cccc(-c2noc(COc3cc(C)ccc3C)n2)c1 :: class 0
Cc1cccc(-c2noc(COc3ccc(Br)cc3)n2)c1 :: class 0
COc1ccc(-c2nc(-c3ccc(C(F)(F)F)cc3)no2)cc1 :: class 0

* * *

- Tested on: Ditylenchus dipsaci
- ASSAY TEXT: proportion of mobile D. dipsaci (mixed stage) relative to DMSO control (fraction of DMSO control); higher = more viable, less nematicidal, active = 0.86 or less; extreme values may be limits of the assay
- EXPERIMENTAL SETUP: 60 µM; 5 days; temperature: 20 °C
Classes used: T = active, F = inactive

COc1cccc(NC(=O)c2ccccc2-c2nc(-c3ccccc3Cl)no2)c1 :: F
COc1cccc(-c2noc(COc3ccc(Br)cc3)n2)c1 :: F
Cc1cccc(OCc2nc(-c3ccc(-n4cccc4)cc3)no2)c1 :: F
COc1nc(C)ccc1-c1noc(-c2ccc(C)cc2)n1 :: F
O=C(Nc1cccc(-c2noc(-c3cccnc3)n2)c1)c1cccs1 :: F
CCCc1ccc(-c2nc(-c3cccnc3)no2)cc1 :: T

* * *

- System: Meloidogyne hapla J2
- ASSAY TEXT: proportion of mobile M. hapla J2 relative to DMSO control (fraction of DMSO control); higher = more viable, less nematicidal, active = 0.7 or less
- EXPERIMENTAL SETUP: 60 µM; 5 days; temperature: 20 °C
PARAMETER MEASURED: proportion of mobile M. hapla J2

Cc1ccc(-c2noc(COc3ccc(Br)cc3)n2)cc1 :: 1
CCC(=O)Nc1ccccc1-c1nc(-c2cccnc2)no1 :: 1.02
COc1ccc(-c2noc(COc3ccc(C4CCCCC4)cc3)n2)cc1 :: 0.62
Cc1ccc(-c2noc(-c3ccc(C)cc3Cl)n2)cc1 :: 0.893
CCn1cc(C(=O)CSc2nnc(-c3ccccc3)o2)c2ccccc21 :: 0.987
Cc1ccccc1OCc1nc(-c2cccc(NC(=O)c3ccco3)c2)no1 :: 1.03

Origin of the recorded values: the supplement of paper PMC11219838
